Biological target: human recombinant mGluR5 (Homo sapiens, UniProt P41594)
Construct: expressed in transfected cells; host or cells: HEK 293 cell line cultured with tetracycline, hygromycin and geneticin; tetracycline removed 3-7 days before the assay
Sequence (P41594 21-1212): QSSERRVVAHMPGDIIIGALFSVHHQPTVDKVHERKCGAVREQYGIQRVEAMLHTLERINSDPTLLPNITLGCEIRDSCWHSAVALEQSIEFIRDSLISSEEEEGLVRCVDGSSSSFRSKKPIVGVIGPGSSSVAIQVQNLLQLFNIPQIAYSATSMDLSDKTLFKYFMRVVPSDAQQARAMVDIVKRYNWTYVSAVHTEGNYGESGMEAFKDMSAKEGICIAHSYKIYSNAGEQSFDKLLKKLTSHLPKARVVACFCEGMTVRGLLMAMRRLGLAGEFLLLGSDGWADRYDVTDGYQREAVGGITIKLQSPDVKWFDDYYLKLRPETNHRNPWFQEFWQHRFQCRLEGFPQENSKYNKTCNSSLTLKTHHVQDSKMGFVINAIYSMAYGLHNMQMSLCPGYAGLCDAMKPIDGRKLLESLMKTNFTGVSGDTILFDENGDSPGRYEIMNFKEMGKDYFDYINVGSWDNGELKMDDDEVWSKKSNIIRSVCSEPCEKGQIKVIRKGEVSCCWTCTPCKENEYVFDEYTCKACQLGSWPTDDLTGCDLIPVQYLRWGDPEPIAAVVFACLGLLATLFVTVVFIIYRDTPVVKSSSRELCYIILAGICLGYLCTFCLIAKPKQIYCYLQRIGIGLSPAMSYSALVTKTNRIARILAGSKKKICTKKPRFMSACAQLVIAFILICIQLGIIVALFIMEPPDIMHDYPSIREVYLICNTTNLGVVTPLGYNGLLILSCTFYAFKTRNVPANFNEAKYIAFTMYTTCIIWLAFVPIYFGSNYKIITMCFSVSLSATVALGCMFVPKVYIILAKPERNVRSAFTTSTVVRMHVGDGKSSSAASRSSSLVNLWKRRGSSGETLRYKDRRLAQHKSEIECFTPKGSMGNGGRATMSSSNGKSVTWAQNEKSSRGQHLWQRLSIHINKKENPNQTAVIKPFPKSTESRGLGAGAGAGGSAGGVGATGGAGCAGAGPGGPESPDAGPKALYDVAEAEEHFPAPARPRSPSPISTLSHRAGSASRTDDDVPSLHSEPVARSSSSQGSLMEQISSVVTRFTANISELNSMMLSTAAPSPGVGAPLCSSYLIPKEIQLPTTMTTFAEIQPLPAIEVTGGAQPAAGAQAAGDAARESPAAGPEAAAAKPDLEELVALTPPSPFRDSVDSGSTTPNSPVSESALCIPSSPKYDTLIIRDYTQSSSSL
Assay: positive modulation of mGluR5, calcium based FLIPR assay in HEK 293 cells
Settings: HEK 293 cell line expressing human recombinant mGluR5; EC50 of the modulation of the glutamate response (glutamate approx. 5% basal stimulation); peak height of Ca release fluorescence signal
Experimental Endpoint: EC50 (nM)

Prompt: // returns reported EC50 for input O=C(Cn1nc(-c2ccccc2)nc1-c1ccccc1)N1CCN(c2ccccn2)CC1 [Example 07.02.27.]
Completion: 353

a. COc1ccc(-c2nc(-c3ccccc3)n(CC(=O)N3CCN(c4ccccn4)CC3)n2)cc1 [Example 07.04.054.]
b. O=C(Cn1nc(-c2ccc(OC(F)F)cc2)nc1-c1ccccc1)N1CCN(c2ncccn2)CC1 [Example 7.04.165]
c. O=C(Cn1nc(-c2ccc(F)cc2)nc1-c1ccc(F)cc1)N1CCN(c2cccc(F)c2)CC1 [Example 07.03.05.]
d. COc1cc(N2CCN(C(=O)Cn3nc(-c4ccc(F)c(C)c4)nc3CC(C)C)CC2)ncn1 [Example 07.04.109.]
Prompt: Parameters: sort_field (EC50), sort_dir (desc). // rank by listing labels in the order requested
Completion: d, c, a, b
(d: 824 nM, c: 469 nM, a: 100 nM, b: 13 nM)
